Note to self: use Condition met only for logP readings below 3; a reading exactly at 3 still gets Condition not met.

Task: Item Cc1ccc(Cl)c2c1NC(=O)C2OC(=O)Cc1ccccc1 (configuration not stated) : logP beneath 3, strictly?
Result: Condition not met

Task: Same read-out for CCCCC(=O)OC1C(=O)Nc2c(C)ccc(C)c21 (configuration not stated) ?
Result: Condition not met

Task: Same read-out for O=C(O)C=C1c2ccccc2NC(=O)C1(O)Cc1ccccc1 (configuration not stated) ?
Result: Condition met

Task: Same read-out for CCOC(=O)C=C1c2ccccc2N(C)C(=O)C1(O)Cc1ccccc1 (configuration not stated) ?
Result: Condition not met

Task: Same read-out for CCCCC1(O)C(=O)Nc2ccccc2C1=CC(=O)O (configuration not stated) ?
Result: Condition met

Task: Same read-out for CCCCC(=O)OC1C(=O)Nc2cc(C)cc(C)c21 (configuration not stated) ?
Result: Condition not met

Task: Same read-out for Cc1cc(C)c2c(c1)NC(=O)C2OC(=O)Cc1ccccc1 (configuration not stated) ?
Result: Condition not met

Task: Same read-out for CCCCC1(O)C(=O)Nc2ccccc2C1=CC(=O)OCC (configuration not stated) ?
Result: Condition not met

Task: Same read-out for CCCCC1(O)C(=O)N(C)c2ccccc2C1=CC(=O)O (configuration not stated) ?
Result: Condition met

Task: Same read-out for CCCCC1(O)C(=O)N(c2ccccc2)c2ccccc2C1=CC(=O)O (configuration not stated) ?
Result: Condition met

Task: Same read-out for O=C(O)C=C1c2ccccc2N(c2ccccc2)C(=O)C1(O)Cc1ccccc1 (configuration not stated) ?
Result: Condition met

Task: Same read-out for CCOC(=O)C=C1c2ccccc2NC(=O)C1(O)Cc1ccccc1 (configuration not stated) ?
Result: Condition not met

====

Record form. Attribute: logP. Fill in for each entry.
# print the numeric value only

Task: What measured logP goes with O=C(O)C=C1c2ccccc2N(c2ccccc2)C(=O)C1(O)c1ccccc1 (stereo not drawn) ?
Result: 2.83

Task: Same read-out for CN1C(=O)C(O)(Cc2ccccc2)C(=CC(=O)O)c2ccccc21 (stereo not drawn) ?
Result: 2.31

Task: Same read-out for CCCCC1(O)C(=O)N(C)c2ccccc2C1=CC(=O)OCC (stereo not drawn) ?
Result: 4.21

# credit: the SangsterLogP compilation
